# Tested on: L1210 leukemia ip in BDF1 mice, survival T/C
# PROCEDURE SUMMARY: NCI In Vivo Anticancer Drug Screen. Data for tumor model L1210 Leukemia (intraperitoneal) in B6D2F1 (BDF1) mice
# COND: endpoint: mean survival time; dose: 100.0 mg/kg/injection; schedule: Q01DX001 (ip); vehicle: other; higher = longer survival
Inconclusive results and toxic doses are left out.
Parameter T/C: see the listing below.
READOUT: T/C

molecule=COC(=O)/C=C(\C)Nc1ccc(C(=O)C2CCCCC2)cc1 readout=T/C result="90 % of control"
molecule=COC(=O)c1cc2nc(C(C)C)n(Cc3ccccc3)c2cc1C(=O)OC readout=T/C result="99 % of control"
molecule=O=C(CC(O)(c1ccccc1)c1ccccc1)Nc1ccccn1 readout=T/C result="89 % of control"
molecule=Cn1c(=O)c2c(nc(OC3CCCCCC3)n2C)n(C)c1=O readout=T/C result="93 % of control"
molecule=CC(C)(C)C(=O)CC(c1ccccc1)c1ccccc1 readout=T/C result="98 % of control"
molecule=C=COCCCCCCCCCCCCCCCCCC readout=T/C result="95 % of control"
molecule="CC(=O)OCC(OC(C)=O)C(OC(C)=O)C(OC(C)=O)C(C#N)OC(C)=O (stereo not drawn)" readout=T/C result="115 % of control"
molecule=Oc1ccccc1C=Nc1ccccc1O.[Cu+2] readout=T/C result="107 % of control"
